biological target: hSSB1 (Homo sapiens, UniProt Q9BQ15 Q9BQ15:1-211); experiment: SPR
Sequence (Q9BQ15 whole entry, one chain of several): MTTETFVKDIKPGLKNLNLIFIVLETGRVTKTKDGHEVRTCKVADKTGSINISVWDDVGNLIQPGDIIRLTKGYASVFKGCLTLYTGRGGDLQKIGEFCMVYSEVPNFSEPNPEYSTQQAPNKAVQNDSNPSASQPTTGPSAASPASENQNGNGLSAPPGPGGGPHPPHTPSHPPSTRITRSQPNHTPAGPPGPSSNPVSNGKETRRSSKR
Label fulfilled for high-side binding signal (at or above 0.7 normalized Rmax) and not fulfilled for low-side binding signal (below it).

binder	assignedLabel
CCUCUCUGCCGCUCUUGCCU (ssRNA, 2'-OMe all, full PS) [DKLS420640 (SEQ 57)]	not fulfilled
CAGCAGCAGAGUAUUUAUCAU (ssRNA, 2'-OMe all, full PS) [DKLS481254 (SEQ 31)]	fulfilled
UCUCCCAGCGUGCGCCAU (ssRNA, 2'-OMe all, full PS) [DKLS696616 (SEQ 9)]	fulfilled
GCAGCAGUACGACGG (ssRNA, 2'-OMe all, full PS) [LSA_ATG 5' truncation 15 nt]	not fulfilled
GUGCAUGGAAUCACGG (ssRNA, 2'-OMe all, full PS) [Open_A 3' truncation 16 nt]	not fulfilled
